Source listed as PubChem BioAssay AID504710.

# assayed.system: Hexokinase HKDC1 (Homo sapiens) (UniProt Q2TB90)
# Sequence (Q2TB90 whole entry, looked up): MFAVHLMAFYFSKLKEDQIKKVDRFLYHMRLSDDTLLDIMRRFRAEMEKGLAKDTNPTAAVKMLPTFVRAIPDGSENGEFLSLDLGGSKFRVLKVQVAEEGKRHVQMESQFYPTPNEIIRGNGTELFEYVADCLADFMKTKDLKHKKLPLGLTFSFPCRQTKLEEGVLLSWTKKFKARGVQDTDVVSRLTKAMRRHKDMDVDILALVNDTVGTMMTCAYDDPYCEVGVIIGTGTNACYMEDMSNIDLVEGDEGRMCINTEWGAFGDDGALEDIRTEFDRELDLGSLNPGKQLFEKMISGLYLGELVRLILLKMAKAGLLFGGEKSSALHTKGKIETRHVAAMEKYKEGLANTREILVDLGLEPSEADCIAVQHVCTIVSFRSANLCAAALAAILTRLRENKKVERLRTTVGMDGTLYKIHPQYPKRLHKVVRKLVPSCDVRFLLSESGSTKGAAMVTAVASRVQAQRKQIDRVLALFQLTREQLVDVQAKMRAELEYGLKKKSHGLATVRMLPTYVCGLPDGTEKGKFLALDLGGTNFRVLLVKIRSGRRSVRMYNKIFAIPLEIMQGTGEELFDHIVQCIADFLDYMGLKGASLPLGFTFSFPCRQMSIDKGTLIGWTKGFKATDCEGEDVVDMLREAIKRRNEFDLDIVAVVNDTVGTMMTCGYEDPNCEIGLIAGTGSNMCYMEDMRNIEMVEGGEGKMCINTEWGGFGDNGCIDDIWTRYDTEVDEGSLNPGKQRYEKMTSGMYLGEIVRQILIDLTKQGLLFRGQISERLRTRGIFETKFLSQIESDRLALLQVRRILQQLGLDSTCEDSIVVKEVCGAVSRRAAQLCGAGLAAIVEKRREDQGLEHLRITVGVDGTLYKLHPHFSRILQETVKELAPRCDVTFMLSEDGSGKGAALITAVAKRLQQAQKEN
# assay.method.text: HKDC1 hexokinase inhibitors, confirmation, biochemical, single concentration (AID 504710)
# measurement.setup: recombinant HKDC1, G6PDH/diaphorase/resazurin fluorescence; at 20 µM; hits give high values
Some molecules, each annotated with its measured inhibition.
Reply with just the number (in %).

Known inhibition results, listed for orientation:
Determine reported inhibition for CCC(c1ccccc1)C(CC)c1cc(O)c(O)c(O)c1 (centres undefined) ; test system: Hexokinase HKDC1 (Homo sapiens) (UniProt Q2TB90).
35.8

Determine reported inhibition for "CCc1ccc(S(=O)(=O)/N=C2\C=C(Nc3ccc(C(=O)O)cc3)C(=O)c3ccccc32)cc1" ; test system: Hexokinase HKDC1 (Homo sapiens) (UniProt Q2TB90).
59.8

Determine reported inhibition for "CCOc1ccc(-n2c(C)cc(C(=O)CCl)c2C)cc1" ; test system: Hexokinase HKDC1 (Homo sapiens) (UniProt Q2TB90).
28.5

Determine reported inhibition for "COC(=O)c1ccc(NCc2cc(O)ccc2O)cc1" ; test system: Hexokinase HKDC1 (Homo sapiens) (UniProt Q2TB90).
65.1

Determine reported inhibition for "CCc1ccc(C2=NNC(=Nc3cccc(S(=O)(=O)N(C)C)c3)SC2)cc1" ; test system: Hexokinase HKDC1 (Homo sapiens) (UniProt Q2TB90).
-141

Determine reported inhibition for "CC(C)Nc1nnc(SCC(=O)Nc2ccc3c(c2)C(=O)c2ccccc2C3=O)s1" ; test system: Hexokinase HKDC1 (Homo sapiens) (UniProt Q2TB90).
53.5

Determine reported inhibition for "CSc1nc(N)nc2c1ncn2CC(=O)N[C@H](C)c1cccc2ccccc12" ; test system: Hexokinase HKDC1 (Homo sapiens) (UniProt Q2TB90).
-73.5

Determine reported inhibition for "COC(=O)Cn1c2ccc(F)cc2c2nc(C)sc21" ; test system: Hexokinase HKDC1 (Homo sapiens) (UniProt Q2TB90).
-90.4

New cases:
Determine reported inhibition for "CC(=O)/C(=N\Nc1ccc(Cl)cc1Cl)Sc1cccc2cccnc12" ; test system: Hexokinase HKDC1 (Homo sapiens) (UniProt Q2TB90).
-44.8

Determine reported inhibition for "O=[N+]([O-])c1ccc(Sc2nc3ccccc3o2)c([N+](=O)[O-])c1" ; test system: Hexokinase HKDC1 (Homo sapiens) (UniProt Q2TB90).
30.4

Determine reported inhibition for "Cn1c(SSc2ccc(-c3cccnc3)n2C)ccc1-c1cccnc1" ; test system: Hexokinase HKDC1 (Homo sapiens) (UniProt Q2TB90).
-248
